Data origin, for the record: ChEMBL document CHEMBL5579900

Each entry below carries its recorded KA.
- TESTED TARGET: Carbonic anhydrase 2 (Homo sapiens) (UniProt P00918)
- STATED CONDITIONS: filed as activator
- Description: Binding affinity to human carbonic anhydrase 2 assessed as activation constant by phenol red dye based stopped-flow method
State just the number; it will be interpreted in nM.

Record summary for N[C@@H](Cc1c[nH]c2ccccc12)C(=O)NCCCCCNc1c2c(nc3ccccc13)CCCC2 : reported KA = 119

Just so you know, measured KA for COC(=O)[C@H](Cc1ccccc1)NCCCCCNc1c2c(nc3ccccc13)CCCC2 came out at 247

Briefly, KA measured for N[C@@H](Cc1c[nH]c2ccccc12)C(=O)NCCCCNc1c2c(nc3ccccc13)CCCC2 : 413

***
// sample CC(C)(C)OC(=O)N[C@@H](Cc1cn(C(=O)OC(C)(C)C)cn1)C(=O)NCCCCNc1c2c(nc3ccccc13)CCCC2 , its KA was 12400

Entry under test: COC(=O)[C@@H](N)Cc1ccc(OCCCCCCNc2c3c(nc4ccccc24)CCCC3)cc1 . Its KA was 295

Record c1ccc2c(NCCCCCCNCCc3c[nH]cn3)c3c(nc2c1)CCCC3 , field KA: 102

# KA (compound: COC(=O)[C@H](CCCCNC(=O)OCc1ccccc1)NCCCCCCNc1c2c(nc3ccccc13)CCCC2 ) is 2410
